Reported log10 of Ki values follow for various molecules
# measurementTarget: human Plasma Kallikrein (Homo sapiens)
# Sequence (P03952 391-638 limits assumed): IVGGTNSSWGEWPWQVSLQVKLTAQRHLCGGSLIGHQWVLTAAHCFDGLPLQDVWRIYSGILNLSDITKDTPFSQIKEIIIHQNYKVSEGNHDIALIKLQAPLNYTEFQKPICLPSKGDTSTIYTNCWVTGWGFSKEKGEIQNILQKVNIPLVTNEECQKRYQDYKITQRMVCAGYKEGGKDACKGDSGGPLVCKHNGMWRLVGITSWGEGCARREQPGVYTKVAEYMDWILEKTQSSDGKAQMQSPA
# Sequence (P03952 20-390 partner limits assumed): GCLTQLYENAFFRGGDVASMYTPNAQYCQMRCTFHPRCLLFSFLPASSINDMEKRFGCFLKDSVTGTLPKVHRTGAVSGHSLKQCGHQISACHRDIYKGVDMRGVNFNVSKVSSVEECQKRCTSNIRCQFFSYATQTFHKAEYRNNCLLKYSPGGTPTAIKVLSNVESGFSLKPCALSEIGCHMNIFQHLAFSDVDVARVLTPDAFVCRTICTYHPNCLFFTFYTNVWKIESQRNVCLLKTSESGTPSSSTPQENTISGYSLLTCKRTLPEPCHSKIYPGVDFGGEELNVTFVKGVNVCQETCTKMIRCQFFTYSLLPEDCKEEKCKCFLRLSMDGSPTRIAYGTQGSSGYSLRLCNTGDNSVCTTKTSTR
# assayMethodText: Plasma Kallikrein assay (chromogenic, Ki)
# conditionSet: 1.5 nM plasma kallikrein, S-2302 0.3 mM; read-out: binding affinity to serine proteases: kallikrein
The figures below represent log10 of Ki, where Ki is stated in µM.

CS(=O)(=O)N1C[C@H](Oc2cccc(C(=N)N)c2)C[C@H]1C(=O)Nc1ccc(Cl)cc1 | 1.43
COC(=O)[C@@H]1C[C@@H](Oc2cccc(C(=N)N)c2)CN1 | 1.74
COc1cc2c(cc1OC)CN(C(=O)[C@@H]1C[C@@H](Oc3cccc(C(=N)N)c3)CN1)CC2 | -0.01
CN(Cc1ccccc1)C(=O)[C@@H]1C[C@@H](Oc2cccc(C(=N)N)c2)CN1Cc1ccccc1 | 1.53
N=C(N)c1ccc(NC(=O)[C@@H]2C[C@@H](Oc3cccc(C(=N)N)c3)CN2C2CCCCC2)cc1 | 0.53
N=C(N)c1ccc(NC(=O)[C@@H]2C[C@@H](Oc3cccc(C(=N)N)c3)CN2Cc2ccccc2[N+](=O)[O-])cc1 [compound 7] | 1.30

Respond only with log10 of Ki recorded for N=C(N)c1ccc(NC(=O)[C@@H]2C[C@@H](Oc3cccc(C(=N)N)c3)CN2Cc2ccc([N+](=O)[O-])cc2)cc1 0.53

Write down log10 of Ki measured for item N=C(N)c1ccc(NC(=O)[C@@H]2C[C@@H](Oc3cccc(C(=N)N)c3)CN2Cc2ccccc2[N+](=O)[O-])cc1 [compound 5] 1.20

Entry CCCN1C[C@H](Oc2cccc(C(=N)N)c2)C[C@H]1C(=O)Nc1ccc(C(=N)N)cc1 needs its log10 of Ki filled in; supply it. 0.82

Write down log10 of Ki measured for item CCCCCCN1C[C@H](Oc2cccc(C(=N)N)c2)C[C@H]1C(=O)Nc1ccc(C(=N)N)cc1 1.23

----------
# measurementTarget: human Factor Xa (Homo sapiens)
# Construct: This complex converts factor X to Xa
# Sequence (P00742 235-488 limits assumed): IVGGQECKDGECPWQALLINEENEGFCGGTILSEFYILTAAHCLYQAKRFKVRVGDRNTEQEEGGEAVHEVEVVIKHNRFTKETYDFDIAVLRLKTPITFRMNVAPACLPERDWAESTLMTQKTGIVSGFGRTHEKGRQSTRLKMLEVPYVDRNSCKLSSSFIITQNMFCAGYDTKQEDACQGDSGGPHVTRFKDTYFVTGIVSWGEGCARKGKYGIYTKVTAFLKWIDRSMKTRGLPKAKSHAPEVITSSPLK
# Sequence (P00742 41-179 limits assumed): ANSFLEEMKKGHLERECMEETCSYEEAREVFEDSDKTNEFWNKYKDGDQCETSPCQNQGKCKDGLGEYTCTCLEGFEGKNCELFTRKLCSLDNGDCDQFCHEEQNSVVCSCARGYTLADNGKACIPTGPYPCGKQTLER
# assayMethodText: Factor Xa assay (chromogenic, Ki)
# conditionSet: 3.3 nM Xa, S-2222 0.5 mM; read-out: binding affinity to serine proteases: Xa
Mark satisfied for Ki under 20 µM, not satisfied if at or over.

Solved cases (5 shown):
C=CCOC(=O)[C@@H]1C[C@@H](Oc2cccc(C(=N)N)c2)CN1S(=O)(=O)c1ccccc1 | not satisfied
N=C(N)c1cccc(O[C@H]2CN[C@H](C(=O)N[C@@H](Cc3ccccc3)C(=O)O)C2)c1 | not satisfied
N=C(N)c1cccc(O[C@H]2CN[C@H](C(=O)NCc3ccncc3)C2)c1 | not satisfied
N#Cc1ccccc1NC(=O)[C@@H]1C[C@@H](Oc2cccc(C(=N)N)c2)CN1 | not satisfied
N=C(N)c1cccc(O[C@@H]2C[C@@H](C(=O)N3CCc4ccccc4C3)N(C(=O)c3ccccc3)C2)c1 | satisfied

A record lists N=C(N)c1cccc(O[C@H]2CN[C@H](C(=O)NCc3cccnc3)C2)c1 . Is its Ki below 20 µM? not satisfied

Please determine if N=C(N)c1cccc(O[C@H]2CN[C@H](C(=O)NC3CCc4ccccc43)C2)c1 (some centres unmarked) is below 20 µM in terms of Ki. satisfied

In plain terms, does N=C(N)c1ccc(NC(=O)[C@@H]2C[C@@H](Oc3cccc(C(=N)N)c3)CN2C2CCCCC2)cc1 come in under 20 µM for Ki? satisfied
